# ASSAY_INFO: chemical genetic growth profiling, strain panel (AID 1159580);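 note: tested at 20 µM; growth read once vehicle control cultures reached saturation at 30 °C; lower values mean less growth of the strain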
# MEASUREMENT_CONTEXT: S. cerevisiae deletion strains, growth OD, locus YOR061W, strain CKA2
Among all 5,500 compounds or so, about 2,000 (36%) were called active. Inconclusive results (about 18%) are left out. Cut-off read from the data, not from the text of the source: active = normalized growth mostly below about 0.91 (no sharp cut-off); inconclusive = no clear call, values can overlap the other calls; inactive = mostly above about 0.92. Some of the results follow.
Field 'call' accepts True for active, False for inactive

Some solved cases for reference:
MOLECULE	LABEL_CLASS
Clc1ccc2c(c1)c1ccccc1n2CN1CCOCC1	True
Fc1ccc(NC(=S)N2CCCN(Cc3ccc(Cl)cc3Cl)CC2)cc1	False
CC1(C)CC[C@@]2(C(=O)O)C(C1)C1=CCC3[C@@]4(C)CC[C@H](O)C(C)(C)C4CC[C@@]3(C)[C@]1(C)C[C@@H]2O (stereo not given in full)	False
C#C[C@]1(O)CCC2C3CCC4=CC(=O)CC[C@@H]4C3CC[C@@]21CC (stereo not given in full)	False
C[C@@H]1CC[C@]2(C(=O)O)CC[C@]3(C)C(=CCC4[C@@]5(C)CC[C@H](O)C(C)(C)C5CC[C@]43C)C2[C@H]1C (stereo not given in full)	False

Now consider the entry below.
In: Identify the outcome logged in this assay for the molecule shown: CCOP(=S)(OCC)Oc1cc(C)nc(C(C)C)n1
Out: False

The reported measurements were obtained from PubChem BioAssay AID1159580.
